growth inhibition overview
- Assay remarks: NCI Yeast Anticancer Drug Screen. Data for the bub3 strain (AID 167)
- Measurement conditions: S. cerevisiae bub3 mutant strain, at 5.0 µM (retest, dose inferred, filed as 0.5), stronger effect = higher value
This is part of a sample that, as a whole, favours compounds with a hit. Of some 79,000 tested, about 15% had one in any assay. Calls of active or inactive are those of the source. No stated cut-off is given here; in the data, active means growth inhibition above about 70%; inactive means the rest.

Here is how some molecules turned out for growth inhibition.
INSERT INTO measurements (molecule, reported) VALUES
  ('[O-][n+]1c2ccccc2nc2cc(Cl)ccc21', '-47% (inactive)'),
  ('CCCCN(CCCC)CC(O)c1cccc2c(Cl)cccc12 (stereo not given)', '13% (inactive)'),
  ('Cc1ccc2ccc(C(Nc3ccccc3)c3ccncc3)c(O)c2n1 (stereo not given)', '-7% (inactive)');

Let us move to another entry and its growth inhibition.
// growth inhibition value for CCOC(=O)C[P+](c1ccc(C)cc1)(c1ccc(C)cc1)c1ccc(C)cc1 : 21% (inactive)

----------
growth inhibition overview
- Assay remarks: NCI Yeast Anticancer Drug Screen. Data for the cln2 rad14 strain (AID 165);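 further: 0% = growth equal to vehicle treated cultures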
- Measurement conditions: S. cerevisiae cln2 rad14 strain, at 50.0 µM, stronger effect = higher value
The panel holds about 79,000 compounds, 15% with a hit somewhere; the sample as a whole holds those more often.
Reply numerically in %, unit not repeated.

Here is how some compounds turned out for growth inhibition.
INSERT INTO assay_data (compound, reported) VALUES
  ('O=C(CSc1nnc(Cc2ccccc2)o1)Nc1ccc(Cl)cc1[N+](=O)[O-]', 21.8),
  ('COc1cc(C(c2cc3c(cc2O)OCO3)N2CCN(C(c3ccc(O)c(OC)c3)c3cc4c(cc3O)OCO4)CC2)ccc1O (configuration not stated)', 96.7);

// growth inhibition value for CCCOC(=O)C(Br)C(Br)C(=O)OCCC (configuration not stated) : 91

// growth inhibition value for S=P([S][Sn]([S]P(=S)(c1ccccc1)c1ccccc1)([c]1ccccc1)[c]1ccccc1)(c1ccccc1)c1ccccc1 : 89.9

// growth inhibition value for O=C(Oc1cc(Cl)c(Cl)cc1Cl)c1ccco1 : -10.2

----------
growth inhibition overview
- Assay remarks: NCI Yeast Anticancer Drug Screen. Data for the mlh1 rad18 strain (AID 175)
- Measurement conditions: S. cerevisiae mlh1 rad18 strain growth inhibition; at 50.0 µM (retest, dose inferred, filed as 5.0); stronger effect = higher value
- Procedure: Growth inhibition of yeast strains with defined genetic alterations is measured as a screen for potential anti-cancer activity. Selected strains with alterations in DNA damage repair or cell cycle control were exposed to compounds and growth inhibition was measured relative to vehicle treated controls. The strain used in this assay is mlh1 rad18
About 79,000 compounds went through this panel and 15% of them were active in at least one assay; those are over-represented in the sample as a whole.
Reply numerically in %, unit not repeated.

Here is how some molecules turned out for growth inhibition.
INSERT INTO results (molecule, reported) VALUES
  ('COc1cccc(N2CCN(CC(O)COc3cc4c(c5c3CCCC5)CCCC4)CC2)c1 (stereo not given)', 94),
  ('Cc1occc1C(=S)Nc1ccc(Cl)c(/C=N/OC(C)C)c1', 91),
  ('Cc1c(Cl)ccc2c1NC(=O)C2(O)CC(=O)c1ccc(Cl)cc1 (stereo not given)', 99),
  ('CCOC(=O)CNC(=O)CNC(=O)CNC(c1ccccc1)(c1ccccc1)c1ccccc1', 83);

Let us move to another entry and its growth inhibition.
// growth inhibition value for COc1ccc(NC(=O)/C(=C/c2ccccc2)C(C)=O)cc1 : 99

----------
growth inhibition overview
- Assay remarks: NCI Yeast Anticancer Drug Screen. Data for the mlh1 rad18 strain (AID 175)
- Measurement conditions: S. cerevisiae mlh1 rad18 strain growth inhibition; at 5.0 µM (retest, dose inferred, filed as 0.5); stronger effect = higher value
This is part of a sample that, as a whole, favours compounds with a hit. Of some 79,000 tested, about 15% had one in any assay.
Reply numerically in %, unit not repeated.

Here is how some molecules turned out for growth inhibition.
INSERT INTO measurements (molecule, reported) VALUES
  ('CC1=C/C(=C\c2ccc([N+](=O)[O-])o2)C(=O)O1', 97),
  ('Cc1[nH]nc(-c2cccnc2)c1N=NN1CCOCC1', -3),
  ('Brc1cc2c(c(Br)c1Br)C(Br)(Br)C(c1ccccc1)=N2', 13);

Let us move to another entry and its growth inhibition.
// growth inhibition value for O=C1C(=O)N(c2ccc(Cl)c(Cl)c2)C(=O)C(=O)C1c1nc2ccccc2o1 : 14

----------
- Assay remarks: NCI Yeast Anticancer Drug Screen. Data for the cln2 rad14 strain (AID 165);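 further: 0% = growth equal to vehicle treated cultures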
- Measurement conditions: S. cerevisiae cln2 rad14 strain, at 50.0 µM
This is part of a sample that, as a whole, favours compounds with a hit. Of some 79,000 tested, about 15% had one in any assay. Calls of active or inactive are those of the source. No stated cut-off is given here; in the data, active means growth inhibition above about 70%; inactive means the rest. Where a SMILES comes first, the peptide text is derived from it. The star is where a group is joined. Cbz = O=C(OCc1ccccc1)*; CH2Cl = ClC*
# output must be one of Y for active, N for inactive

Use these answered entries as a reference point.
INSERT INTO measurements (molecule, qualitative_label) VALUES
  ('OC(CN1CCC(c2ccccc2)CC1)c1ccc(Br)cc1 (stereo not given)', 'Y'),
  ('Cc1c(N)nc(C(CC(N)=O)NCC(N)C(N)=O)nc1C(=O)NC(C(=O)NC(C)C(O)C(C)C(=O)NC(C(=O)NCCc1nc(-c2nc(C(=O)NCCCNCCCc3ccccn3)cs2)cs1)C(C)O)C(OC1OC(CO)C(O)C(O)C1OC1OC(CO)C(O)C(OC(N)=O)C1O)c1cnc[nH]1 (stereo not given)', 'Y'),
  ('CCCCCCC(O)(CCCCCC)CCCCCC', 'N');

What classification did CCCCCC(C)(C)N=C=S end up with in this test?
N

What classification did C[Si](C)c1cccc(Cl)c1 end up with in this test?
N

What classification did CC(=O)SC1C(=O)N(C)C(SC(C)=O)C(=O)N1C (stereo not given) end up with in this test?
Y

What classification did COc1ccc2ccc3c(c2c1)CCC(C(=O)O)C3CC(=O)O (stereo not given) end up with in this test?
Y

What classification did O=C(Nn1cc(F)c(=O)[nH]c1=O)C12CC3CC(CC(C3)C1)C2 end up with in this test?
Y

What classification did COc1ccc(C(=O)c2ccc([N+](=O)[O-])cc2)cc1 end up with in this test?
N

What classification did CC(C)CC(NC(=O)OCc1ccccc1)C(=O)NC(Cc1ccccc1)C(=O)CCl (stereo not drawn) (Cbz-Leu-Phe-CH2Cl; configuration not given here) end up with in this test?
N

----------
- Assay remarks: NCI Yeast Anticancer Drug Screen. Data for the bub3 strain (AID 167)
- Measurement conditions: S. cerevisiae bub3 mutant strain, at 50.0 µM, stronger effect = higher value
Compounds without any hit were thinned out: in the full panel of roughly 79,000, 15% have a hit.
Answer F if growth inhibition is under 90%, and T if it is 90% or more.

Use these answered entries as a reference point.
INSERT INTO measurements (compound, qualitative_label) VALUES
  ('CC(=O)Nc1c(Cl)ccc2c1Cc1cc([N+](=O)[O-])ccc1-2', 'F'),
  ('Cn1cnc2[nH]c(Cl)nc(=S)c21', 'F'),
  ('c1ccc(CCNCc2ccco2)nc1', 'F'),
  ('CN(C)CCC(=O)c1ccc2c(ccc3ccccc32)c1', 'F'),
  ('CC(C)=C1C=C2CCC3C(C)(C(=O)O)CCCC3(C)C2CC1 (stereo not drawn) (tested in a mixture with another compound)', 'F'),
  ('CC(C)=NNc1ncnc2nc[nH]c12', 'F'),
  ('O=C1c2cccc3cccc(c23)C1(Br)Br', 'F'),
  ('C=Cc1cc(=O)oc2cc(OC)ccc12', 'T'),
  ('NC(C(=O)O)C1=CCCCCC1 (stereo not drawn)', 'F'),
  ('OC(c1ccccc1)c1cccc2ccccc12 (stereo not drawn)', 'F');

Given CCOC(=O)N/N=C/c1ccc(N(C)CCC#N)cc1 , state whether its growth inhibition is at least 90%.
F

Given CSc1nc2c(c(=O)[nH]1)C1C=C(C)CCC1C(C)(C)C2 (stereo not drawn) , state whether its growth inhibition is at least 90%.
F

Given Oc1ccc(Cc2ccccc2)cc1Cl , state whether its growth inhibition is at least 90%.
T

Given CC(=O)Nc1ccc2c(c1)C(S)c1ccccc1-2 (stereo not drawn) , state whether its growth inhibition is at least 90%.
F

Given CN(C)c1ccc(C2(Cl)c3ccccc3N(Cc3ccccc3)c3ccccc32)cc1 , state whether its growth inhibition is at least 90%.
T

----------
- Assay remarks: NCI Yeast Anticancer Drug Screen. Data for the mec2-1 strain (AID 157)
- Measurement conditions: S. cerevisiae mec2-1 strain, at 50.0 µM, stronger effect = higher value
Compounds without any hit were thinned out: in the full panel of roughly 79,000, 15% have a hit.
Answer condition not met if growth inhibition is under 90%, and condition met if it is 90% or more.

Use these answered entries as a reference point.
INSERT INTO results (compound, qualitative_label) VALUES
  ('O=C1C(c2ccc([N+](=O)[O-])cc2)=C(Cl)C(=O)c2c(O)cccc21', 'condition not met'),
  ('O=C(O)/C(Cl)=C(/Cl)C(=O)Nc1cccc(Cl)c1', 'condition not met'),
  ('CC1(c2ccc(S(=O)(=O)c3ccccc3)cc2)OC(=O)C=CC1=O (stereo not drawn)', 'condition met'),
  ('O=C(O)c1cccc(S(=O)(=O)NN2C(=O)CSC2c2c(O)ccc3ccccc23)c1 (stereo not drawn)', 'condition not met'),
  ('CC(NC(=O)OCc1ccccc1)C(=O)NNc1ccccc1Cl (stereo not drawn)', 'condition met'),
  ('CC(C)=CCC/C(=C/CC/C(C)=C/CCc1ccoc1)C(=O)O', 'condition not met'),
  ('C/C=C/C(=O)NCC(C(C)C)/[N+]([O-])=N/O (stereo not drawn)', 'condition met'),
  ('C(=[CH]/[Sn]([c]1ccccc1)([c]1ccccc1)[c]1ccccc1)/c1ccccc1', 'condition met');

Given CC(C)(C)OC(=O)N[C@H]1CC2(C=C(Cl)C(=O)C(Cl)=C2)OC1=O , state whether its growth inhibition is at least 90%.
condition not met

Given CC1=C(C(=O)Nc2cccc(Cl)c2)C(c2ccc([N+](=O)[O-])cc2)C(C(=O)Nc2cccc(Cl)c2)=C(C)N1 , state whether its growth inhibition is at least 90%.
condition not met

Given COC(=O)c1c(COC(=O)NC(C)C)c2n(c1C)CS(=O)(=O)C2 , state whether its growth inhibition is at least 90%.
condition met

Given CCCN(CCC)C(=S)N/N=C/c1cccc(C)n1 , state whether its growth inhibition is at least 90%.
condition met

Given Cc1cc2ccccc2c[n+]1Cc1ccc2ccccc2n1 , state whether its growth inhibition is at least 90%.
condition not met

Given CN(C)c1nc(-c2ccccc2)cc(-c2ccc(O)cc2)n1 , state whether its growth inhibition is at least 90%.
condition not met

Given O=C1C=C(Cl)C(=O)C2=C1CCCC2 , state whether its growth inhibition is at least 90%.
condition not met

Given COCC(O)Cn1cc([N+](=O)[O-])nc1C (stereo not drawn) , state whether its growth inhibition is at least 90%.
condition not met

Given NS(=O)(=O)c1ccc(-n2cccc2)cc1 , state whether its growth inhibition is at least 90%.
condition not met

Given C=CCc1cc(C(=O)OCC)cc(OC)c1O , state whether its growth inhibition is at least 90%.
condition not met
